Listed here: items and their measured TGI.
- Test system: MOLT-4 leukemia
- assay-summary: NCI tumour cell line growth inhibition, 48 h

molecule	TGI
COc1ccc(Nc2cc(C)nc(NCCCNc3ccnc4cc(Cl)ccc34)n2)cc1	> 100 µM
CC(=O)[CH-]C(=O)c1ccccc1.CC(=O)[CH-]C(=O)c1ccccc1.C[C@]12CCC(=O)C=C1CC[C@@H]1C2CC[C@@]2(C)C1CC[C@@H]2[O-].C[C@]12CCC(=O)C=C1CC[C@@H]1C2CC[C@@]2(C)C1CC[C@@H]2[O-].Cl.[Ti+4] (stereo partly drawn)	> 100 µM
CN1CCN(Cc2ccc(NC(=O)c3cccc(C#Cc4cnc(N)c5ncccc45)c3F)cc2C(F)(F)F)CC1	3.06 µM

Origin of the recorded values: PubChem BioAssay (NCI)
